Here's a roundup of pKi values tested on Coagulation factor X (Bos taurus, UniProt P00743), taken from various published works.
The read-out pKi is expressed as -log10 of concentration in moles per litre.

The molecule N=C(N)c1cccc(CC(NS(=O)(=O)c2ccc3ccccc3c2)C(=O)N2CCCCC2)c1 (stereo not drawn) , tested on Coagulation factor X (Bos taurus, UniProt P00743), showed pKi of 4.42

The molecule "N=C(N)c1ccc(NC(=O)C(=O)Nc2ccc(C(=N)N)cc2)cc1" , tested on Coagulation factor X (Bos taurus, UniProt P00743), showed pKi of 4.28

The molecule CC(C)OC(=O)C(Cc1cccc(C(N)N)c1)NC(=O)CNS(=O)(=O)c1ccc2ccccc2c1 (stereo not drawn) , tested on Coagulation factor X (Bos taurus, UniProt P00743), showed pKi of 6.62

The molecule CC1(C)C2CCC1(CCS(=O)(=O)NC(Cc1cccc(C(=N)N)c1)C(=O)N1CCN(S(C)(=O)=O)CC1)C(=O)C2 (stereo in doubt; 28) , tested on Coagulation factor X (Bos taurus, UniProt P00743), showed pKi of 5.96

The molecule N=C(N)c1cccc(CC(NS(=O)(=O)c2ccc3ccccc3c2)C(=O)N2CCNCC2)c1 (stereo not drawn) , tested on Coagulation factor X (Bos taurus, UniProt P00743), showed pKi of 4.68

The molecule COC(=O)N1CCN(C(=O)C(Cc2cccc(C(=N)N)c2)NS(=O)(=O)c2ccc3ccccc3c2)CC1 (stereo not drawn) , tested on Coagulation factor X (Bos taurus, UniProt P00743), showed pKi of 4.11

The molecule CCCC(=O)N1CCN(C(=O)C(Cc2cccc(C(=N)N)c2)NS(=O)(=O)c2ccc3ccccc3c2)CC1 (stereo not drawn) , tested on Coagulation factor X (Bos taurus, UniProt P00743), showed pKi of 4.10

The molecule CC1CCN(C(=O)C(Cc2cccc(C(=N)N)c2)NC(=O)OC(C)(C)C)CC1 (stereo not drawn) , tested on Coagulation factor X (Bos taurus, UniProt P00743), showed pKi of 4.19

The molecule Cc1ccc(S(=O)(=O)NC(Cc2cccc(C(N)N)c2)C(=O)N2CCCCC2)cc1 (stereo not drawn) , tested on Coagulation factor X (Bos taurus, UniProt P00743), showed pKi of 4.82

The molecule "N=C(N)c1ccccc1" , tested on Coagulation factor X (Bos taurus, UniProt P00743), showed pKi of 3.80

The molecule "N=C(N)c1ccc(NCCCCCCCNc2ccc(C(=N)N)cc2)cc1" , tested on Coagulation factor X (Bos taurus, UniProt P00743), showed pKi of 6.41

The molecule "N=C(N)c1ccc(N2CCN(c3ccc(C(=N)N)cc3)CC2)cc1" , tested on Coagulation factor X (Bos taurus, UniProt P00743), showed pKi of 4.70

The molecule CC(C)c1cc(C(C)C)c(S(=O)(=O)NC(Cc2cccc(C(N)N)c2)C(=O)N2CCCC(C(=O)NCc3ccccc3)C2)c(C(C)C)c1 (stereo not drawn) , tested on Coagulation factor X (Bos taurus, UniProt P00743), showed pKi of 5.60

The molecule CCOC(=O)N1CCN(C(=O)C(Cc2cccc(C(N)N)c2)NS(=O)(=O)c2c(C(C)C)cc(C(C)C)cc2C(C)C)CC1 (stereo not drawn) , tested on Coagulation factor X (Bos taurus, UniProt P00743), showed pKi of 5.77

The molecule N=C(N)c1cccc(CC(NS(=O)(=O)c2ccc3ccccc3c2)C(=O)N2CCN(c3ccccc3)CC2)c1 (stereo not drawn) , tested on Coagulation factor X (Bos taurus, UniProt P00743), showed pKi of 4.57

The molecule "N=C(N)c1ccc(OCc2ccc(COc3ccc(C(=N)N)cc3)cc2)cc1" , tested on Coagulation factor X (Bos taurus, UniProt P00743), showed pKi of 6.49

The molecule CCOC(=O)N1CCN(C(=O)C(Cc2cccc(C(=N)N)c2)NS(=O)(=O)c2ccc3ccccc3c2)CC1 (stereo not drawn) , tested on Coagulation factor X (Bos taurus, UniProt P00743), showed pKi of 4.27

The molecule CC1CCN(C(=O)C(N)Cc2cccc(C(=N)N)c2)CC1 (stereo not drawn) , tested on Coagulation factor X (Bos taurus, UniProt P00743), showed pKi of 3.64
